All values here come from patent US10144706B2.

Readings of IC50 for the listed compounds
Biological target: PD-1/PD-L1 interaction (PD-1-Ig / PD-L1-His) (Homo sapiens)
Construct: hPDL1(18-239)-TVMV-His; TVMV protease site linker (C); made in house; host or cells: HEK293T
Sequence (Q9NZQ7 with tags, fused parts or gaps): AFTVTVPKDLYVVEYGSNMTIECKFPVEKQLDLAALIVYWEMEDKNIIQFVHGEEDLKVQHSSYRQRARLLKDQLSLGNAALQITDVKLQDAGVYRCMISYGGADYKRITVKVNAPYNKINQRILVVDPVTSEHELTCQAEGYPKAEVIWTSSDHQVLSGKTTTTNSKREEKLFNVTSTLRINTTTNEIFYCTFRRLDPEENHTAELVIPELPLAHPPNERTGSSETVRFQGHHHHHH
Experiment: PD-1/PD-L1 Homogenous Time-Resolved Fluorescence (HTRF) binding assay
Conditions: IC50 range class; PD-L1-His 10 nM, PD-1-Ig 20 nM; read-out: Range or IC50
Structures can show the parent of a compound that is named as a salt.

# count of solved cases: 2
COMPOUND: Cc1c(OCCCN2CC[C@@H](O)C2)cccc1-c1cccc(OCCCN2CCC(O)(c3ccccc3)C2)c1C (stereo partly drawn) [Example 3028, TFA]
RECORDED_RESULT: 20.1 to 90 nM
//
COMPOUND: Cc1c(COc2cc(OCc3cncc(C#N)c3)c(CN[C@H](CC(=O)O)Cc3ccc(I)cc3)cc2Cl)cccc1-c1cccc(COc2cc(OCc3cncc(C#N)c3)c(CN[C@H](CC(=O)O)Cc3ccc(I)cc3)cc2Cl)c1C
RECORDED_RESULT: 90.1 to 1000 nM

# input Param item = `Cc1c(OCCCN[C@H](CO)c2ccccc2)cccc1-c1cccc(OCCCN2CC[C@@H](O)C2)c1C` ; retrieve measured IC50.
# output 90.1 to 1000 nM
